Cited source: paper PMC10317891

assay-overview: In vivo biodistribution by SPECT/CT imaging
Parameters: species or system C57BL/6 mice
settings: female, C57BL/6, mouse, tumor, total radioactivity; 3 h p.i.; 30 MBq (1 nmol) iv; SPECT/CT; mean ± SD, n = 6; SD; read-out: Tumor %ID/g
Numbered stars: 1 amine (or outer) side, 2 acyl side, 3 side chain; on linkers, the order of the positions; unused ones are H or OH. Bridge positions count the residues as written; N and C are the ends. Peptide text beside a SMILES is read from it. * marks the point of attachment. X1 = O=C(O)CN1CCN(CC(=O)O)CCN(CC(=O)N2CCN(Cc3cc(C[*:1])cc(C[*:2])c3)CC2)CCN(CC(=O)O)CC1; Hexanoyl = CCCCCC(=O)*
observation-type: tissue uptake at 3 h (%ID/g)
Could you give me the number in %ID/g? Just the number is fine.

[in] Give me measured tissue uptake at 3 h, please, for this molecule: CCCCCC(=O)N[C@H]1CSCc2cc(cc(CN3CCN(C(=O)CN4CCN(CC(=O)O)CCN(CC(=O)O)CCN(CC(=O)O)CC4)CC3)c2)CSC[C@@H](C(=O)N[C@@H](CC(=O)O)C(N)=O)NC(=O)[C@H](Cc2ccccc2)NC(=O)[C@H](CCC(N)=O)NC(=O)[C@H]([C@@H](C)O)NC(=O)[C@@H]2CCCN2C(=O)[C@@H]2CCCN2C1=O [^177Lu-FAP-2287, metal not drawn] (Hexanoyl-CPPTQFCD-NH2; linker 1-7 via X1; N-terminus and C-terminus assumed)
[out] 8.2
